Consider the following molecules and their measured IC50 readings.
Biological target: beta-catenin/TCF4 engagement (Homo sapiens)
Construct: expressed in transfected cells; host or cells: HEK293
Sequence (P35222 1-781): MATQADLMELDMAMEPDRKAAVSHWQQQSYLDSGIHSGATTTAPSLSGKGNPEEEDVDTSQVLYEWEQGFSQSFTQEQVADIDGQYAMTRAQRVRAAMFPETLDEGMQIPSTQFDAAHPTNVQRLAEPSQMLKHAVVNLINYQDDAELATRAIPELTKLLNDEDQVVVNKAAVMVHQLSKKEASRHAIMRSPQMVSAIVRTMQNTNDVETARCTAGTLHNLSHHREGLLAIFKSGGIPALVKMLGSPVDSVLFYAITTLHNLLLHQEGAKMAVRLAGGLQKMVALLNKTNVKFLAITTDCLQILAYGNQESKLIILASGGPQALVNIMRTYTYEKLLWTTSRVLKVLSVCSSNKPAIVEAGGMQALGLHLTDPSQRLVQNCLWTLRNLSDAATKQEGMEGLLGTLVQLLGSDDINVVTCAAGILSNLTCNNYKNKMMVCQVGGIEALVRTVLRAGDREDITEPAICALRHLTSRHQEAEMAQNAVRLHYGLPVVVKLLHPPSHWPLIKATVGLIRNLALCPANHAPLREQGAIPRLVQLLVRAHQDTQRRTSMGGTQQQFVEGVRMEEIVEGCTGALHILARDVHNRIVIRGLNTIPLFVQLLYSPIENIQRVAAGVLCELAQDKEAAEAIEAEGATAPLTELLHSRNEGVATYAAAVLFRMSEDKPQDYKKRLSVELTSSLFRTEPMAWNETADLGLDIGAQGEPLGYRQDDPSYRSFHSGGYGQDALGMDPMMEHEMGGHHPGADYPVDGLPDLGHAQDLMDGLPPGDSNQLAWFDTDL
Test: Nano-BRET target engagement assay (B-cat-Halo & TCF4-Luc in HEK293 cells)
Type: cell-based
Settings: read-out: NanoBRET Abs IC50
PROPERTY_NAME: IC50 (µM)

- CC(=O)N1CCC[C@]12CC=CCCCC1(CCCC=CCCCOC(=O)N3CC[C@@](C(=O)N[C@@H](Cc4ccsc4)C(=O)N[C@@H](Cc4csc5ccccc45)C(=O)N[C@@H](Cc4c[nH]cn4)C(N)=O)(C3)NC(=O)[C@H](CC(C)C)NC(=O)[C@H](Cc3ccccc3)NC(=O)[C@H](C)NC(=O)[C@H](C)NC(=O)[C@H](CC(=O)O)NC(=O)[C@H](CC(=O)O)NC1=O)NC(=O)[C@H](CC(C)(C)C)NC(=O)[C@H](CC(=O)O)NC2=O (stereo partly drawn) [I-802]: 4.8
- CC(=O)N1CCC[C@]12CC=CCCCC1(CCCC=CCCCOC(=O)N3CC[C@@](C(=O)N[C@@H](Cc4ccccc4Cl)C(=O)N[C@@H](Cc4csc5ccccc45)C(=O)N[C@@H](CC(N)=O)C(N)=O)(C3)NC(=O)[C@H](C)NC(=O)[C@H](Cc3ccccc3)NC(=O)[C@H](C)NC(=O)[C@H](C)NC(=O)[C@H](Cc3cccc(C(=O)O)c3)NC(=O)[C@H](CC(=O)O)NC1=O)NC(=O)[C@H](CC(C)(C)C)NC(=O)[C@H](CC(=O)O)NC2=O (stereo partly drawn) [I-2035]: 14.5
- COc1ccccc1C[C@H](NC(=O)[C@]12CCN(C1)C(=O)OCCCC=CCCCC1(CCCC=CC[C@]3(CCCN3C(C)=O)C(=O)N[C@@H](CC(=O)O)C(=O)N[C@@H](CC(C)(C)C)C(=O)N1)C(=O)N[C@@H](CC(=O)O)C(=O)N[C@@H](CC(=O)O)C(=O)N[C@@H](C)C(=O)N[C@@H](C)C(=O)N[C@@H](Cc1ccccc1)C(=O)N[C@@H](CC(N)=O)C(=O)N2)C(=O)N[C@@H](Cc1csc2ccccc12)C(=O)N[C@@H](CCC(N)=O)C(N)=O (stereo partly drawn) [I-780]: 20.7
